Numbers sourced from ChEMBL document CHEMBL3286234.

system: A2780; test: Cytotoxicity against cisplatin-sensitive human A2780 cells assessed as inhibition of cell viability after 72 hrs by MTT assay; type: functional, cell-based; conditions: A2780, 72 h
observable: IC50 (µM)
Kindly provide the numeric value in µM only, without the unit symbol.

**Query** Fill in: IC50 on A2780, entry `CCCN(CCC)C(=O)Cc1c(-c2ccc(Cl)cc2)nc2c(NC(=O)CN(Cc3ccccn3)Cc3ccccn3)cccn12`
**Result** 9.02

====

biological target: Translocator protein (Rattus norvegicus, UniProt P16257); experiment: Displacement of [3H]PK11195 from TSPO in rat C6 cell membrane after 90 mins by radioligand binding assay; format: cell membranes
Sequence (P16257 whole entry, looked up): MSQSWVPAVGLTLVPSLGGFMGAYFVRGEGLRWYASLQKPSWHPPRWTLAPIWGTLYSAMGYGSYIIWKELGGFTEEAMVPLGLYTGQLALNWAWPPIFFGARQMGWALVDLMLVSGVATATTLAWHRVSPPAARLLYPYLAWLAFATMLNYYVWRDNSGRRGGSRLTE
observable: pKi
The meaning of pKi here: minus log10 of the concentration in molar units.

**Query** Report pKi, nothing else, for this molecule: `CCCN(CCC)C(=O)Cc1c(-c2ccc(Cl)cc2)nc2c(N)cccn12`
**Result** 8.80
